MEASURED_TARGET: hPPARγ (Homo sapiens, UniProt P37231)
Sequence (P37231 1-505): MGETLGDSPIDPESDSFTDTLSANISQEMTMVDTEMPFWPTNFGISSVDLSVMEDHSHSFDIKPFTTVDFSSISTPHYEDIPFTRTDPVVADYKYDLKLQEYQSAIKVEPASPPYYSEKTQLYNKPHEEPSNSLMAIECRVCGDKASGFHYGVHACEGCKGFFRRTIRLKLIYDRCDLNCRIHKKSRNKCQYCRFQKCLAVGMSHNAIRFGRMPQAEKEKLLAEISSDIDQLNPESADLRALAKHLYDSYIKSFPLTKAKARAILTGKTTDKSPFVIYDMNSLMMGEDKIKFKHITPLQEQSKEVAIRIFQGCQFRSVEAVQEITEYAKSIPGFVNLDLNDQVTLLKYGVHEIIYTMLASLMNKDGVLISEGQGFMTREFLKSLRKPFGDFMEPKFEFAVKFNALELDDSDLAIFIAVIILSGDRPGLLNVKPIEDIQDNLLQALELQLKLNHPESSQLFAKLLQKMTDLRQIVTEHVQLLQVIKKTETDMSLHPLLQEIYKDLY
ASSAY_DETAILS: In vitro co-transfection (PPRE-luciferase) assay in CV-1 cells, hPPARγ
RECORDED_CONDITIONS: 24 h, read-out: Potency (EC50) hPPARγ
ENDPOINT_LABEL: EC50

Q: For Cc1cc([Se]Cc2[se]c(-c3ccc(C(F)(F)F)cc3)nc2C)ccc1OCC(=O)O [Compound 5b] , what is its reported EC50?
Ans: > 10 µM

Q: Dear colleague, I am looking for the recorded EC50 of the following compound: Cc1cc(SCc2[se]c(-c3ccc(C(F)(F)F)cc3)nc2C)ccc1OCC(=O)O [Compound 5a]
Ans: > 10 µM
